- test-summary: Toxicity against human erythrocytes assessed as hemolysis at 100 uM after 1 hr by spectrophotometry
- Assay type: cell-based, Erythrocyte
- measurement-conditions: read-out: Activity
Residues, ends and D or L forms follow the SMILES beside them.
quantity: hemolysis at 1 h, 100 µM

Example cases with answers are listed next.
- compound: "CC(C)C[C@H](NC(=O)[C@H](CCCNC(=N)N)NC(=O)[C@@H](N)CCCCN)C(=O)N[C@@H](CCCNC(=N)N)C(=O)N[C@@H](CCCNC(=N)N)C(=O)N[C@H](C(=O)N[C@@H](Cc1c[nH]c2ccccc12)C(=O)N[C@@H](CCCNC(=N)N)C(=O)N[C@@H](CCCNC(=N)N)C(=O)N[C@@H](Cc1c[nH]c2ccccc12)C(=O)N[C@@H](CCCNC(=N)N)C(N)=O)C(C)C (H-KRLRRVWRRWR-NH2)"
  reported-value: "3%"
- compound: "CC(C)C[C@H](NC(=O)[C@H](CO)NC(=O)[C@@H](N)CCCCN)C(=O)N[C@@H](CCCNC(=N)N)C(=O)N[C@@H](CCCNC(=N)N)C(=O)N[C@H](C(=O)N[C@@H](Cc1c[nH]c2ccccc12)C(=O)N[C@@H](CCCNC(=N)N)C(=O)N[C@@H](CO)C(=O)N[C@@H](Cc1c[nH]c2ccccc12)C(=O)N[C@@H](CCCNC(=N)N)C(N)=O)C(C)C (H-KSLRRVWRSWR-NH2)"
  reported-value: "0%"
- compound: "CC(C)C[C@H](NC(=O)[C@H](Cc1c[nH]c2ccccc12)NC(=O)[C@@H](N)CCCCN)C(=O)N[C@@H](CCCNC(=N)N)C(=O)N[C@@H](CCCNC(=N)N)C(=O)N[C@H](C(=O)N[C@@H](Cc1c[nH]c2ccccc12)C(=O)N[C@@H](CCCNC(=N)N)C(=O)N[C@@H](Cc1c[nH]c2ccccc12)C(=O)N[C@@H](Cc1c[nH]c2ccccc12)C(=O)N[C@@H](CCCNC(=N)N)C(N)=O)C(C)C (H-KWLRRVWRWWR-NH2)"
  reported-value: "100%"

Turning now to a further compound:
## Input If you can, please state the reported hemolysis at 1 h, 100 µM value of CC(C)C[C@H](NC(=O)[C@H](CO)NC(=O)[C@@H](N)CCCCN)C(=O)N[C@H](C(=O)N[C@@H](CCCNC(=N)N)C(=O)N[C@@H](CCCNC(=N)N)C(=O)N[C@@H](Cc1c[nH]c2ccccc12)C(=O)N[C@@H](CCCNC(=N)N)C(=O)N[C@@H](CO)C(=O)N[C@@H](CCCNC(=N)N)C(=O)N[C@@H](Cc1c[nH]c2ccccc12)C(N)=O)C(C)C (H-KSLVRRWRSRW-NH2) .
## Output 0%
